Recorded growth inhibition by entry
- assay_notes: NCI Yeast Anticancer Drug Screen. Data for the mlh1 rad18 strain (AID 175)
- assay_setup: S. cerevisiae mlh1 rad18 strain growth inhibition; at 50.0 µM; active compounds read high
About 79,000 compounds went through this panel and 15% of them were active in at least one assay; those are over-represented in the sample as a whole. Active and inactive are the calls of the source. No stated cut-off is given here; in the data, active means growth inhibition above about 70%; inactive means the rest.
attribute_measured: growth inhibition

{"compound": "Cc1cc2c3ccccc3n(C)c2c2c1C(=O)C=CC2=O", "experimental_result": "55.8% (inactive)"}
{"compound": "O=C(Cc1ccccc1)Nc1ccc(Br)cc1", "experimental_result": "8.55% (inactive)"}
{"compound": "C[N+]1(C)CCC(C(=O)c2ccccc2)CC1", "experimental_result": "16.4% (inactive)"}
{"compound": "CC(C)C/C(CC(=O)CCC(=O)Nc1ccccc1[N+](=O)[O-])=N\\NC(=O)c1cc2ccccc2cc1O", "experimental_result": "29.9% (inactive)"}
{"compound": "CCC(=O)Oc1cc(C(C)(C)C)c(OC(=O)CC)cc1C(C)(C)C", "experimental_result": "35.4% (inactive)"}
{"compound": "CC(=O)[O-].[Mn+3].[O-]c1ccccc1C=NCCNCCN=Cc1ccccc1[O-]", "experimental_result": "51.1% (inactive)"}
{"compound": "O=C(Cc1ccccc1)Nc1cccc2ccccc12", "experimental_result": "0.9% (inactive)"}
{"compound": "CCCCC(=O)N/N=C/c1c[nH]c2ccc(Br)cc12", "experimental_result": "0.05% (inactive)"}
{"compound": "CCOC(=O)c1ccccc1C(=O)c1ccccc1O", "experimental_result": "18.4% (inactive)"}
{"compound": "C=CCN(C)C(=O)CCCCCCCC1C(CCCCCCCC)C2(Cl)C(Cl)=C(Cl)C1(Cl)C2(Cl)Cl (centres undefined)", "experimental_result": "-8.35% (inactive)"}
{"compound": "O=C1N(CC2CO2)CCN1CC1CO1 (centres undefined)", "experimental_result": "-76% (inactive)"}
{"compound": "CN=C(NC)C(c1ccccc1)c1ccccc1", "experimental_result": "-9.3% (inactive)"}
{"compound": "CCN(CC)CCN(N)CCN(CC)CC", "experimental_result": "-17.2% (inactive)"}
{"compound": "C[N+]([O-])(C/C=C/c1ccccc1)c1ccccc1 (centres undefined)", "experimental_result": "-2.7% (inactive)"}
{"compound": "CCOCCOCCOC12C(=O)C(Cl)=C(Cl)C(=O)C13C1CC2C(Cl)C13 (centres undefined)", "experimental_result": "98.2% (active)"}
{"compound": "C/C(=N\\O)c1cccs1", "experimental_result": "-1.4% (inactive)"}
{"compound": "COC(=O)c1ccccc1Cl", "experimental_result": "26.1% (inactive)"}
{"compound": "O=C1c2cccc([N+](=O)[O-])c2C(=O)N1c1ncn[nH]1", "experimental_result": "0.15% (inactive)"}
{"compound": "CCCCCC(=O)C(CCCC)C(=O)OCC (centres undefined)", "experimental_result": "-33.5% (inactive)"}
{"compound": "O=S(=O)(N1CCOCC1)N1CCOCC1", "experimental_result": "3.85% (inactive)"}
{"compound": "[CH3][Sn]([CH3])([N](c1ccccn1)c1ccccn1)[N](c1ccccn1)c1ccccn1", "experimental_result": "-21.4% (inactive)"}
{"compound": "C=CCOc1c(C)cc(C)cc1C", "experimental_result": "-6.85% (inactive)"}
{"compound": "O=[N+]([O-])c1ccc(OCC#CCOc2ccc([N+](=O)[O-])c(C(F)(F)F)c2)cc1C(F)(F)F", "experimental_result": "-3.75% (inactive)"}
{"compound": "c1ccc(CSc2nn[nH]n2)cc1", "experimental_result": "-4.95% (inactive)"}
{"compound": "CCCCCCC(C)CC1=C(O)c2ccccc2C(=O)C1=O (centres undefined)", "experimental_result": "5.25% (inactive)"}
{"compound": "Cc1cc(C)c2[nH]c(=O)c(C)c(C)c2c1Br", "experimental_result": "-0.25% (inactive)"}
{"compound": "Oc1cc2c(c3c(O)c4ccccc4c(O)c13)=NC1CCCCC1N=2 (centres undefined)", "experimental_result": "40% (inactive)"}
{"compound": "CCC#CCN(CCC)CCC", "experimental_result": "-18.9% (inactive)"}
{"compound": "OC(c1cccc(Cl)c1)C(Cl)Cl (centres undefined)", "experimental_result": "1.95% (inactive)"}
{"compound": "CC(C)(C)c1cc(C[N+](C)(C)[O-])c(O)c(-c2ccccc2)c1", "experimental_result": "-13.6% (inactive)"}
{"compound": "O=C1CCCc2ccc3c(c21)CC1(Cc2ccccc2C1)C3", "experimental_result": "-5.8% (inactive)"}
{"compound": "N/C(=C\\C(=O)c1ccccc1)C(=O)c1ccccc1", "experimental_result": "-1.55% (inactive)"}
{"compound": "CC1(O)CC2C(CC1SC1CC3C(CC1(C)O)C3(C)C)C2(C)C (centres undefined)", "experimental_result": "-33% (inactive)"}
{"compound": "O=C(c1ccc(F)cc1)C1CCC1", "experimental_result": "22.1% (inactive)"}
{"compound": "O=C(Nc1ccc2ncccc2c1)Nc1ccc2ncccc2c1", "experimental_result": "21.4% (inactive)"}
{"compound": "CC(C)(C(=O)c1cccnc1)c1cccnc1", "experimental_result": "12.7% (inactive)"}
{"compound": "C/C(=C\\c1ccccc1)C(O)C(=O)c1nc2ccc([N+](=O)[O-])cc2[nH]c1=O (centres undefined)", "experimental_result": "14.5% (inactive)"}
{"compound": "CCCSc1cc(Cl)c(C)cc1S(=O)(=O)n1cc[nH]c1=O", "experimental_result": "35.7% (inactive)"}
{"compound": "CCCCNCCS", "experimental_result": "8.5% (inactive)"}
{"compound": "O=C(OCCN=c1c2ccccc2ccc2ccccc12)c1cc([N+](=O)[O-])cc([N+](=O)[O-])c1", "experimental_result": "39.8% (inactive)"}
{"compound": "C1OCC(C2OCOC2C2OCOC2C2COCO2)O1 (centres undefined)", "experimental_result": "9.5% (inactive)"}
{"compound": "C/C(CC(=O)NC1=CC=C(NC(=O)C/C(C)=N\\Nc2ccccc2)CC1)=N/Nc1ccccc1", "experimental_result": "13.7% (inactive)"}
{"compound": "Cn1nc2ccc3nccc(NCCNCCO)c3c2n1", "experimental_result": "-9.65% (inactive)"}
{"compound": "CCCCCCCS(=O)(=O)CCCCC(=O)O", "experimental_result": "-9.5% (inactive)"}
{"compound": "CCC(CC)COC(=O)CC(C)=O", "experimental_result": "33.4% (inactive)"}
{"compound": "CCCCCCCC/C=C/CCCCCCCC(=O)N(CCOC(=O)C(C)(C)C)CCOC(=O)C(C)(C)C", "experimental_result": "39.2% (inactive)"}
{"compound": "COC1(OC)CC2C(=O)N(Cc3ccccc3)C1C=C2S(=O)(=O)c1ccccc1 (centres undefined)", "experimental_result": "8.25% (inactive)"}
{"compound": "CC(=O)[C@H]1C[C@@H](CC(=O)O)C1(C)C", "experimental_result": "-3.15% (inactive)"}
{"compound": "Cc1nc(N)nc(-c2ccccc2)c1N=Nc1cc(Cl)cc(Cl)c1", "experimental_result": "7.45% (inactive)"}

Origin of measurements: PubChem BioAssay (NCI)
